Attribution: the supplement of paper PMC12338614

B1: library; numbered along this chain (parent)
chain: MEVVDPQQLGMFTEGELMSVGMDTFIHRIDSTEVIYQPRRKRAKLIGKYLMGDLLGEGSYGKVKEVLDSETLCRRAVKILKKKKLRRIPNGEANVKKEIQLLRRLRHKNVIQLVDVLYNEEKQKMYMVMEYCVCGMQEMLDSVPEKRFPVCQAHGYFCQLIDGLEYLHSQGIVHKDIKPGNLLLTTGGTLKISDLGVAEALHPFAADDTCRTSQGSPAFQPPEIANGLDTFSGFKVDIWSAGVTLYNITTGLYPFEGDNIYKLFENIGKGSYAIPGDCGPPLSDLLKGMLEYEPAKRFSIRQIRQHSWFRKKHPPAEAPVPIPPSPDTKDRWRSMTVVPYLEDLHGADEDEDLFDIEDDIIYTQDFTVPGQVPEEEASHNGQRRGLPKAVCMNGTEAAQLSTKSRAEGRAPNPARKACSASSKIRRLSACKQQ

Variants of: B1
Test: STK11 functional score (HeLa growth suppression), rescaled enrichment; synonymous median = 1, nonsense median = 0 (normalised score)
Conditions: with HeLa; variant type: missense
This section presents variants with their documented STK11 functional score values.
Simply state the number, no unit and no words.

`E223C` has a reported STK11 functional score of 1.03

Summary for this variant, `R384C` : STK11 functional score is 1.14

For record `Q432G` the listed STK11 functional score is 1.61

Summary for this variant, `G346C` : STK11 functional score is 1.22

Given item `S283Y` , the value recorded as its STK11 functional score is 0.69
